system: NCI-H226; test: NCI tumour cell line growth inhibition, 48 h
Calls of active or inactive are those of the source. Cut-off read from the data, not from the text of the source: active = GI50 up to about 1.1 µM and inactive = higher.
value.kind: GI50

Please look up its GI50: O=C(O)COc1cc(-c2ccccc2F)nc2cc3c(cc12)OCO3 > 100 µM (inactive)

Request the reported GI50 associated with C/C(=N\NC(=O)CC#N)C(CN1CCCCC1)C(c1ccccc1)c1c(O)c2ccccc2oc1=O (stereo not drawn) 52.1 µM (inactive)

Any idea what GI50 was measured for CC1(C)O[C@H]2OC3CCC(=O)CC3(O)[C@H]2O1 (stereo partly drawn) ? > 100 µM (inactive)

// lookup GI50 for O=C(Nc1nnc(S)[nH]1)C(=O)C(c1cnc2ccc([N+](=O)[O-])cc2n1)[N+](=O)[O-] (stereo not drawn) > 100 µM (inactive)

Which GI50 value is on record for N=C1N=C(N)c2cc3c(cc21)SCCSCCCSCCS3 ? 20.5 µM (inactive)

Item under review: CN(C)CCCN1c2ccccc2CCc2cc([N+](=O)[O-])ccc21 . Reported GI50? 24 µM (inactive)

Reported GI50, compound NNC(=O)CCC(=O)NC1C2CC3CC(C2)CC1C3 (stereo not drawn) : ____ > 100 µM (inactive)

Consider the compound CC12CCC(C(=O)n3c1nc1ccccc13)C(C)(C)O2 (stereo not drawn) and give its measured GI50. > 100 µM (inactive)
